B1: Far upstream element-binding protein 1, residues 184 to 257; numbered along this chain, Q96AE4 (parent)
chain: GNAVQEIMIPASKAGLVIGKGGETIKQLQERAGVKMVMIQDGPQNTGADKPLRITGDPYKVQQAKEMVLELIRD

- Variants of: B1
- PROTOCOL TEXT: abundance fitness (aPCA) (normalised: wild type 0, dead -1); higher = more abundant; growth selection in yeast, the domain comes from the species named
- CONDITION SUMMARY: Homo sapiens
MEASURED PROPERTY: abundance fitness

>>> assay_result("GNAVQEIMIPASKAGLVIGKGGETIKQLQERAGVKMVMIQDGPQNTGADKPLRITGDPYKVQQAKDMVLELIRD [E66D]")
-0.002
>>> assay_result("GNAVQEIMIPASKAGLVIGKGGETIKQLQERAGVKMVMIQDGPQNTGADKPLRITGDPYKDQQAKEMVLELIRD [V61D]")
-0.881
>>> assay_result("GNAVQEIMIPASKAGLVIGKGGETIKQLQERAGVKMVMIQDGPQNTGADKPLRITGDQYKVQQAKEMVLELIRD [P58Q]")
-0.079
>>> assay_result("GNAVQEIMIPASKAGGVIGKGGETIKQLQERAGVKMVMIQDGPQNTGADKPLRITGDPYKVQQAKEMVLELIRD [L16G]")
-0.191
>>> assay_result("GNAVQEIMIPASKAGLVIGKGGETIKQLQERAGVKMVMIQDGPQNTGADKPLRITGDPAKVQQAKEMVLELIRD [Y59A]")
0.011
>>> assay_result("GNAVQEIMIPASEAGLVIGKGGETIKQLQERAGVKMVMIQDGPQNTGADKPLRITGDPYKVQQAKEMVLELIRD [K13E]")
-0.139
>>> assay_result("GNAVQEIMIPAKKAGLVIGKGGETIKQLQERAGVKMVMIQDGPQNTGADKPLRITGDPYKVQQAKEMVLELIRD [S12K]")
0.011
>>> assay_result("GNAVQEIMIPASKAGLVIGKGGETIKQLQERAGVKMVMIQDGPQNTGADKPLRITGDPYKVQQAKEWVLELIRD [M67W]")
-0.124
>>> assay_result("GNAVQEIMIPASKAGLVIGKGGETIKQLQEDAGVKMVMIQDGPQNTGADKPLRITGDPYKVQQAKEMVLELIRD [R31D]")
-0.028
>>> assay_result("GNAVQEIMIPASKAGLVIGKGGETIKQLQERAGVKMVMIQDGPMNTGADKPLRITGDPYKVQQAKEMVLELIRD [Q44M]")
-0.007
>>> assay_result("GNAVQEIMIPASKAGLVIGKGGETIKELQERAGVKMVMIQDGPQNTGADKPLRITGDPYKVQQAKEMVLELIRD [Q27E]")
-0.001
>>> assay_result("GNAVQEIMIPASKAGLVIGKGGETIKQLQERAGVKMVMIQDGPQNTGADKPLRITGDPYKVQQAKEMVLELIRM [D74M]")
-0.193
>>> assay_result("GNAVQEIMIPASKAGLVIGKGGETIKQLQERAGVKMVMIQDGPQNTGADCPLRITGDPYKVQQAKEMVLELIRD [K50C]")
-0.057
>>> assay_result("GNAVQEIMIPASKAGLVIGKGGETIKQLQERAGVKMVMIQDGPQNTGADKPLRITGDPYKVQQAKEMVLENIRD [L71N]")
-0.242
>>> assay_result("GNAVQEIMIPASKAGLVIGKGGETIKQLQERAGVKMVMIQDKPQNTGADKPLRITGDPYKVQQAKEMVLELIRD [G42K]")
0.049
>>> assay_result("GNAVQEIMIPASKAGLVIGKGGETIKQLQTRAGVKMVMIQDGPQNTGADKPLRITGDPYKVQQAKEMVLELIRD [E30T]")
-0.071
>>> assay_result("GNAVQEIMIPASKAGLVIGKIGETIKQLQERAGVKMVMIQDGPQNTGADKPLRITGDPYKVQQAKEMVLELIRD [G21I]")
-0.278
>>> assay_result("GNAVQEIMIPAMKAGLVIGKGGETIKQLQERAGVKMVMIQDGPQNTGADKPLRITGDPYKVQQAKEMVLELIRD [S12M]")
-0.071
>>> assay_result("GNAVQEIMIPASKAGLVIGHGGETIKQLQERAGVKMVMIQDGPQNTGADKPLRITGDPYKVQQAKEMVLELIRD [K20H]")
-0.045
>>> assay_result("GNAVQEIMIPASKAGLVIGKGGETIKQLQERAGVKMVMIQDGPQNTGADKPERITGDPYKVQQAKEMVLELIRD [L52E]")
-0.956
>>> assay_result("GNAVQEIMIPASKAGLVIGKGGETIKQLQERAGVKMVMIQDGPQNTGADKPQRITGDPYKVQQAKEMVLELIRD [L52Q]")
-0.97
>>> assay_result("GNAVQEIMIPASKAGLVIGKGGETIKQLQERAGVKMVMIQDGPQNTGAKKPLRITGDPYKVQQAKEMVLELIRD [D49K]")
-0.087
>>> assay_result("GNAVQEIMIPAGKAGLVIGKGGETIKQLQERAGVKMVMIQDGPQNTGADKPLRITGDPYKVQQAKEMVLELIRD [S12G]")
0.002
>>> assay_result("GNAVQEIMIPASAAGLVIGKGGETIKQLQERAGVKMVMIQDGPQNTGADKPLRITGDPYKVQQAKEMVLELIRD [K13A]")
-0.094
>>> assay_result("GNAVQEIMIPASKAGLVIGKGGETIKQLQERAGVKMVMWQDGPQNTGADKPLRITGDPYKVQQAKEMVLELIRD [I39W]")
-0.096
>>> assay_result("GNAVQEIMIPASKAGLVIGKGGETIKQLQARAGVKMVMIQDGPQNTGADKPLRITGDPYKVQQAKEMVLELIRD [E30A]")
-0.039
>>> assay_result("GNAVQEIMIPASKAGLVIGKGGETIMQLQERAGVKMVMIQDGPQNTGADKPLRITGDPYKVQQAKEMVLELIRD [K26M]")
-0.122
>>> assay_result("GNAVQEIMIPASKAGLVIGKGGETIKQLQERAGVKMVMIQDGPQNTGADKPLRITCDPYKVQQAKEMVLELIRD [G56C]")
-1.08
>>> assay_result("GNAVQEIMIPASKAGLVIGKGGETIKQLQIRAGVKMVMIQDGPQNTGADKPLRITGDPYKVQQAKEMVLELIRD [E30I]")
-0.03
>>> assay_result("GNAVQEIMIPASKAGLVIGKGGETIKQLQERAGVKMVMIQDGPQNTGADKPLRIIGDPYKVQQAKEMVLELIRD [T55I]")
-0.023
>>> assay_result("GNAVQEIMIPASKAGLVIGKGGETIKQLQERAGVKGVMIQDGPQNTGADKPLRITGDPYKVQQAKEMVLELIRD [M36G]")
-0.67
>>> assay_result("GNAVQEIMIPASKAGLVIGKGGETIKQLQERAGVKMVMIYDGPQNTGADKPLRITGDPYKVQQAKEMVLELIRD [Q40Y]")
-0.049
>>> assay_result("GNAVQEIMIPASKAGLVIGKGGETIKQLQERAGVKMVMIQDGPQNTGADKPLRITGDPYKVQQAKEMVLYLIRD [E70Y]")
-0.196
>>> assay_result("GNAVQEIMIPASKAGLVIGKGGETIKQLQERAGVKMVMIQDGPQNTGADKPLRITGEPYKVQQAKEMVLELIRD [D57E]")
0.019
